# Test system: TK-10 renal
# ASSAY_OVERVIEW: NCI-60 one-dose screen, 48 h (100 = growth as untreated, 0 = no growth, -100 = all killed)
# CONDITIONS_USED: 10 µM unless noted
Compounds without any hit were thinned out: in the full panel of roughly 83,000, 20% have a hit. The source made the active and inactive calls. How the source made its calls: active means growth percent below 10; inactive means the rest.
Overview of recorded growth for various molecules

| SMILES_STRUCTURE | growth |
| --- | --- |
| Nc1ccc(C(=O)Nc2cccc(C(=O)Nc3ccc4c(O)c(N=Nc5ccc(N=Nc6ccc(S(=O)(=O)O)cc6)cc5)c(S(=O)(=O)O)cc4c3)c2)cc1 | 97.1% (inactive) |
| N#Cc1c(NC(=O)c2cccs2)[n+]([O-])c2cc(C(F)(F)F)ccc2[n+]1[O-] | 104% (inactive) |
| c1ccc(Sc2ncccn2)nc1 | 109% (inactive) |
| CN(C)C1=NCCN1 | 93.6% (inactive) |
| CC(C)C1=C[C@@]23CC[C@H]4[C@](C)(COCCC#N)CCC[C@]4(C)[C@H]2C[C@@H]1[C@@H]1[C@H]3[C@@H](OCCC#N)CC[C@@H]1OCCC#N | 37.7% (inactive) |
| O=c1[nH]nc(-c2ccccc2)c2sc(NC(=S)Nc3ccc(Cl)cc3)nc12 | 96.5% (inactive) |
| COc1ccc2c(c1)/C(=C1\S/C(=N/c3nnc(C)s3)NC1=O)C(=O)N2Cc1ccc(Cl)cc1 | 58.4% (inactive) |
| CCCn1c2cc(OCc3cn(-c4ccc(Br)cc4)nn3)ccc2c2ccnc(C)c21 | 85.9% (inactive) |
| COc1cc(NC(=O)Nc2cnc(Nc3ccc(N4CCOCC4)cc3)nc2Oc2ccc(F)cc2)cc(OC)c1 | 116% (inactive) |
